- experiment: Concentration in blood of male beagle dogs
- Type: in vivo
- measurement context: dog, plasma, 30 mg/kg, 30 mg/kg water suspension, 1 hr.
Reported log10 concentration at 1 h is given for each of the following compounds.
Log scale reminder: concentration at 1 h in ng/mL, then log10 taken.

# return recorded log10 concentration at 1 h for entry CCOC(=O)CCCOc1ccc2c(c1)CCC(=O)N2 [compound 29, reference compound]
1.00

# return recorded log10 concentration at 1 h for entry O=C1CCc2cc(OCCCC(=O)N(C3CCCCC3)C3CCCCC3)ccc2N1
2.56

# return recorded log10 concentration at 1 h for entry CN(C(=O)CCCOc1cccc2c1CCC(=O)N2)C1CCCCC1
2.63

====

- System: rabbit platelet
- experiment: ADP-induced aggregation in rabbit platelets (AG-II Aggregometer)
- Format: cell-based
- measurement context: Oryctolagus cuniculus, Platelet; 10^-4 mole; read-out: Inhibition effect on ADP-induced aggregation in rabbit platelet
readout kind: inhibition at 100 µM (stock)

> print(dat)
                                   molecule  result
1  O=C1CCc2cc(OCCCC(=O)N(c3ccccc3)c3ccccc3)ccc2N1 [compound 24]   43.2%
2  CCN(C(=O)CCCOc1c(Cl)cc(Cl)c2c1CCC(=O)N2)c1ccccc1 [compound 12]   71.7%
3  O=C(CCCOc1ccc2c(c1)CCC(=O)N2)Nc1ccccc1 [compound 19]   24.6%

# return recorded inhibition at 100 µM (stock) for entry CN(C(=O)CCCOc1ccc2[nH]c(=O)ccc2c1Cl)C1CCCCC1 [compound 6]
87.2%

# return recorded inhibition at 100 µM (stock) for entry CN(C(=O)CC(O)COc1ccc2[nH]c(=O)ccc2c1)C1CCCCC1 (centres unmarked) [compound 8]
91.7%

====

Reported concentration at 4 h is given for each of the following molecules.
- experiment: Concentration in blood of male beagle dogs
- Type: in vivo
- measurement context: dog, plasma, 30 mg/kg, 30 mg/kg water suspension, 4 hr.
Number only, in ng/mL; omit the unit.

Example molecules with recorded concentration at 4 h:
> print(dat)
                                   molecule  numeric.readout
1  CN(C(=O)CCCOc1cccc2c1CCC(=O)N2)C1CCCCC1 [compound 23]              210
2  O=C1CCc2cc(OCCCC(=O)N(C3CCCCC3)C3CCCCC3)ccc2N1 [compound 18]              320

Now look at this one.
# return recorded concentration at 4 h for entry CC1CCCCC1N(C)C(=O)CCCOc1ccc2[nH]c(=O)ccc2c1 (stereo not drawn) [compound 1]
210

====

- experiment: Acute toxicity test, oral administration to mice
- Format: in vivo
- measurement context: mouse, in vivo, Male mice
Reported LD50 is given for each of the following molecules.

# return recorded LD50 for entry CCN(C(=O)CCCOc1ccc2[nH]c(=O)ccc2c1)c1ccccc1
> 1000 mg/kg

# return recorded LD50 for entry CN(C(=O)CCCOc1ccc(O)c2c1CCC(=O)N2)C1CCCCC1
> 1000 mg/kg

# return recorded LD50 for entry CCOC(=O)C(C)Oc1ccc2c(c1)NC(=O)CC2 (stereo not shown) [compound 28, reference compound]
> 1000 mg/kg

# return recorded LD50 for entry CN(C(=O)CCCOc1ccc2[nH]c(=O)ccc2c1)C1CCC(O)CC1 (stereo not shown)
> 1000 mg/kg
